Listing of recorded relative affinity by entry.
Molecular target: T1, HLA-DR11 (HLA-DRB1*11:01) (human)
T1 construct: mature; purified from homozygous EBV-transformed lymphoblastoid cells with antibody L243
Assay: competition ELISA vs biotin-HA 306-318;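 also: HLA and competitor incubated 24 to 72 h, maximal signal taken from wells lacking competitor, background from wells lacking HLA molecule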
No end group written: not given here.
Property: relative affinity

[[record]]
binder = "HTLAKYLMELTMLDY-NH2 [CCNB1 320-334]"
observed_value = 2

[[record]]
binder = "AKINMAGAKRVPTAP-NH2 [CCNB1 17-31]"
observed_value = 2

[[record]]
binder = "PQLNSALVQDLAKAV-NH2 [CCNB1 416-430]"
observed_value = 123

[[record]]
binder = "MEMKILRALNFGLGR-NH2 [CCNB1 285-299]"
observed_value = 4

[[record]]
binder = "AKYLMELTMLDYDMV-NH2 [CCNB1 323-337]"
observed_value = 0.4

[[record]]
binder = "MALRVTRNSKINAEN-NH2 [CCNB1 1-15]"
observed_value = 22

[[record]]
binder = "AKISTLPQLNSALVQ-NH2 [CCNB1 410-424]"
observed_value = 1

[[record]]
binder = "NSALVQDLAKAVAKV-NH2 [CCNB1 419-433]"
observed_value = 3

[[record]]
binder = "LHFLRRASKIGEVDV-NH2 [CCNB1 303-317]"
observed_value = 1

[[record]]
binder = "ESLLPVMQHLAKNVV-NH2 [CCNB1 374-388]"
observed_value = 0.3

[[record]]
binder = "VDVEQHTLAKYLMEL-NH2 [CCNB1 315-329]"
observed_value = 632

[[record]]
binder = "HQIRQMEMKILRALN-NH2 [CCNB1 280-294]"
observed_value = 2000

[[record]]
binder = "LPVMQHLAKNVVMVN-NH2 [CCNB1 377-391]"
observed_value = 3

